The values you see were collected from PubChem BioAssay (Tox21).

Test: qHTS assay to identify small molecule antagonists of the estrogen related receptor (ERR) signaling pathway from Tox21 library (AID 1224848); also: nearly all actives have a fitted effect of over 50% in size
Details: ERR reporter cell line, luciferase antagonist mode, 18 h; series mostly up to 92.4 µM
Results filed as inconclusive are left out. Activity calls are given as the source filed them. Calls follow the shape of the dose curve; as a rule, active = well fitted inhibition curve with a large enough effect in the repeat runs; inconclusive = weak or mixed curves; inactive = no such curve, though single readings can be large or run the other way.
Your reply should match one of these outcome classes. 1 (yes) (active), 0 (no) (inactive)

Recorded results for 2 compounds are shown here.
Compound: c1ccc2occc2c1
Group Label: 0 (no)
//
Compound: CCOC(=O)C1=NN(c2ccc(Cl)cc2Cl)C(C)(C(=O)OCC)C1 (configuration not stated)
Group Label: 1 (yes)

Okay, next one:
Challenge: What was the test verdict on Brc1cc(Br)cc(Br)c1 ?
Response given: 0 (no)

* * *

Assay: qHTS assay for small molecules that induce genotoxicity in human embryonic kidney cells expressing luciferase-tagged ATAD5 (AID 651632); also: nearly all actives have a fitted effect of over 15% in size; as to activation: % is scaled to controls: 0 for no effect and ±100 for the full control effect
Conditions: HEK293T ATAD5-luciferase induction, 16 h; series mostly up to 83.3 µM
Results filed as inconclusive are left out. The source made the active and inactive calls. Calls follow the shape of the dose curve; as a rule, active = well fitted activation curve with a large enough effect in the repeat runs; inconclusive = weak or mixed curves; inactive = no such curve, though single readings can be large or run the other way. Positions of bridges follow the written chain, without caps; N, C: chain ends. Non-standard residues stand in square brackets, D forms with d. Residues, ends and D or L forms follow the SMILES beside them. *: point of attachment. X1 = CC[C@@H](C)[C@@H](N)C1=N[C@H](C(=O)*)CS1; d(aIle) = CC[C@H](C)[C@@H](N)C(=O)O; dOrn = NCCC[C@@H](N)C(=O)O
Your answer must be one of the following: yes (1) for active, no (0) for inactive

Molecule: CC(C)NCC1CCc2cc(CO)c([N+](=O)[O-])cc2N1 (centres undefined)
Group Label: no (0)

Molecule: CN[C@H]1CC[C@@H](c2ccc(Cl)c(Cl)c2)c2ccc(S(N)(=O)=O)cc21
Group Label: no (0)

Molecule: Nc1nc(NC2CC2)c2ncn([C@@H]3C=C[C@@H](CO)C3)c2n1
Group Label: yes (1)

Molecule: O=C(O)C[C@H](O)C[C@H](O)/C=C/c1c(C2CC2)nc2ccccc2c1-c1ccc(F)cc1
Group Label: no (0)

Molecule: N=C(N)n1cccn1
Group Label: no (0)

Challenge: How was C(=C\c1ccncc1)/c1ccccc1 classified in this test?
Response given: yes (1)

Challenge: Please indicate how the test categorized CCCCCCCCCCCCCCCCC(C(=O)O)C(O)(CC(=O)O)C(=O)O (centres undefined) .
Response given: no (0)

Challenge: Per the assay record, what outcome was assigned to Cc1c(O)c(=O)ccn1C ?
Response given: no (0)

Challenge: GET /call?item= CC[C@@H](C)[C@@H](N)C1=N[C@H](C(=O)N[C@@H](CC(C)C)C(=O)N[C@@H](CCC(=O)O)C(=O)N[C@@H](C(=O)N[C@@H]2CCCCNC(=O)[C@@H](CC(N)=O)NC(=O)[C@@H](CC(=O)O)NC(=O)[C@@H](Cc3cnc[nH]3)NC(=O)[C@@H](Cc3ccccc3)NC(=O)[C@@H]([C@H](C)CC)NC(=O)[C@@H](CCCN)NC2=O)[C@@H](C)CC)CS1 (X1-LE[d(aIle)][dK][dOrn][dI][dF][dH][dD][dN]; lactam 4-C) returns the recorded outcome of this test.
Response given: no (0)

* * *

Assay: qHTS assay to identify small molecule agonists of H2AX (AID 1224845); also: % is scaled to controls: 0 for no effect and ±100 for the full control effect
Details: CHO-K1 phospho-H2AX Ser139 HTRF, 3 h; series mostly up to 154 µM
Records with an inconclusive call do not appear. Activity calls are given as the source filed them. Calls follow the shape of the dose curve; as a rule, active = well fitted activation curve with a large enough effect in the signal ratio in the repeat runs (not every such curve was filed as active); inconclusive = weak or mixed curves; inactive = flat fitted curve, though single readings scatter; the % refers to the signal ratio.
Quantity Measured: outcome

// worked examples, outcome included
Compound: Nc1cc([N+](=O)[O-])ccc1Cl
Quantity Measured: outcome
Data Value: inactive
//
Compound: CN1CC[C@H](c2c(O)cc(O)c3c(=O)cc(-c4ccccc4Cl)oc23)[C@H](O)C1
Quantity Measured: outcome
Data Value: inactive
//
Compound: Cc1ccc(C2OC[C@@H]3OC(c4ccc(C)cc4)O[C@H]([C@H](O)CO)[C@@H]3O2)cc1 (stereo partly drawn)
Quantity Measured: outcome
Data Value: inactive
//
Compound: CN1CCN(C)CC1
Quantity Measured: outcome
Data Value: inactive
//
Compound: CCOC(=O)[C@H](C)O
Quantity Measured: outcome
Data Value: inactive

Challenge: For the compound O=C(NCc1ncc(C(F)(F)F)cc1Cl)c1c(Cl)cccc1Cl , give its reported outcome.
Response given: inactive

Challenge: Supply reported outcome belonging to this compound: O=C(N[C@H](CO)[C@H](O)c1ccc([N+](=O)[O-])cc1)C(Cl)Cl
Response given: inactive

Challenge: Could you please provide reported outcome for CC1(C)[C@H]2CC[C@]1(C)C(=O)C2 ? Thanks!
Response given: inactive

Challenge: Query outcome for CN1CCN(CCCN2c3ccccc3Sc3ccc(C(F)(F)F)cc32)CC1
Response given: inactive

Challenge: Tell me its outcome given O=C1CCC(=O)N1 as the entry.
Response given: inactive
